hEphA6-SEAP-: absorbance at 450 nm, percentage with respect to hEphA4-SEAP-His as 100% values, listed per item
- Target Entity: T1, human EphA6 (Homo sapiens, UniProt Q9UF33)
- T1 construct: a protein of the extracellular region of each human Eph receptor fused with the SEAP protein and the His tag; made in house; host or cells: Expi293F cells (culture supernatant)
- T1 sequence (Q9UF33 23-550 limits assumed): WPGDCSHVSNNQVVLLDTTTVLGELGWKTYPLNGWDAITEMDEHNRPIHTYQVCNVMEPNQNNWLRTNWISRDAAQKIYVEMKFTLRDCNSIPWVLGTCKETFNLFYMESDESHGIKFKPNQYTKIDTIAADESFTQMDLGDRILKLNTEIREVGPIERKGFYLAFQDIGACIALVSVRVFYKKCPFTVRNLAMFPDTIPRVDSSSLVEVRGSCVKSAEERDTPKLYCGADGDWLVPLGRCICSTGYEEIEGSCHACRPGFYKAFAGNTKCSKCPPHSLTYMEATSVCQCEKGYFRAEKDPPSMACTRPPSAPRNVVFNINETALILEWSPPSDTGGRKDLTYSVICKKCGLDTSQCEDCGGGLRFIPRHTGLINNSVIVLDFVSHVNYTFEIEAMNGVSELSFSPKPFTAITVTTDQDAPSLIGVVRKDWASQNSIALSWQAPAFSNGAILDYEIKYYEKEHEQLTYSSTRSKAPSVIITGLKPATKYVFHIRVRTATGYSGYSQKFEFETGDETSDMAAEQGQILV
- Test Summary: Selectivity ELISA of humanized antibodies for human Eph receptor
- Type: binding
- Assay Setup: coated protein 1 nM
Please reply with the bare figure in % and do not write the unit itself.

>  <Molecule>
133 (antibody, V domains shown, synthetic humanized antibody heavy chain variable region sequence; synthetic humanized antibody light chain variable region sequence) VH: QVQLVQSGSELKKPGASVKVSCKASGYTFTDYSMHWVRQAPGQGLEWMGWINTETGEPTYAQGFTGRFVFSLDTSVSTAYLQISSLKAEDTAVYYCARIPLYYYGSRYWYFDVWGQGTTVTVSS VL: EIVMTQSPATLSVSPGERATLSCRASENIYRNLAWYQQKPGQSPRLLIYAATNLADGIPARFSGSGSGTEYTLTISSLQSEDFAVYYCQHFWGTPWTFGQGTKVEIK

>  <Value Reported>
8.8

$$$$

Q: Quick one: hEphA6-SEAP-: absorbance at 450 nm, percentage with respect to hEphA4-SEAP-His as 100% of 86 (antibody, V domains shown, constant regions without entry; synthetic humanized antibody light chain variable region sequence; synthetic humanized antibody heavy chain variable region sequence) VL: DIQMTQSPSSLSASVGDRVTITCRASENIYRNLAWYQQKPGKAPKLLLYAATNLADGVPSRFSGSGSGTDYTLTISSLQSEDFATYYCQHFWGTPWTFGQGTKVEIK VH: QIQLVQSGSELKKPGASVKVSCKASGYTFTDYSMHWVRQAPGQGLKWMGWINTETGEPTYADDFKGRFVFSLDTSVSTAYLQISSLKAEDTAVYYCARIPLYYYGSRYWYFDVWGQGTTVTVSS ?
Ans: 8.6

From: patent US10428140B2
